- test target: UniProt:Q6RI86
- Sequence (Q6RI86 whole entry): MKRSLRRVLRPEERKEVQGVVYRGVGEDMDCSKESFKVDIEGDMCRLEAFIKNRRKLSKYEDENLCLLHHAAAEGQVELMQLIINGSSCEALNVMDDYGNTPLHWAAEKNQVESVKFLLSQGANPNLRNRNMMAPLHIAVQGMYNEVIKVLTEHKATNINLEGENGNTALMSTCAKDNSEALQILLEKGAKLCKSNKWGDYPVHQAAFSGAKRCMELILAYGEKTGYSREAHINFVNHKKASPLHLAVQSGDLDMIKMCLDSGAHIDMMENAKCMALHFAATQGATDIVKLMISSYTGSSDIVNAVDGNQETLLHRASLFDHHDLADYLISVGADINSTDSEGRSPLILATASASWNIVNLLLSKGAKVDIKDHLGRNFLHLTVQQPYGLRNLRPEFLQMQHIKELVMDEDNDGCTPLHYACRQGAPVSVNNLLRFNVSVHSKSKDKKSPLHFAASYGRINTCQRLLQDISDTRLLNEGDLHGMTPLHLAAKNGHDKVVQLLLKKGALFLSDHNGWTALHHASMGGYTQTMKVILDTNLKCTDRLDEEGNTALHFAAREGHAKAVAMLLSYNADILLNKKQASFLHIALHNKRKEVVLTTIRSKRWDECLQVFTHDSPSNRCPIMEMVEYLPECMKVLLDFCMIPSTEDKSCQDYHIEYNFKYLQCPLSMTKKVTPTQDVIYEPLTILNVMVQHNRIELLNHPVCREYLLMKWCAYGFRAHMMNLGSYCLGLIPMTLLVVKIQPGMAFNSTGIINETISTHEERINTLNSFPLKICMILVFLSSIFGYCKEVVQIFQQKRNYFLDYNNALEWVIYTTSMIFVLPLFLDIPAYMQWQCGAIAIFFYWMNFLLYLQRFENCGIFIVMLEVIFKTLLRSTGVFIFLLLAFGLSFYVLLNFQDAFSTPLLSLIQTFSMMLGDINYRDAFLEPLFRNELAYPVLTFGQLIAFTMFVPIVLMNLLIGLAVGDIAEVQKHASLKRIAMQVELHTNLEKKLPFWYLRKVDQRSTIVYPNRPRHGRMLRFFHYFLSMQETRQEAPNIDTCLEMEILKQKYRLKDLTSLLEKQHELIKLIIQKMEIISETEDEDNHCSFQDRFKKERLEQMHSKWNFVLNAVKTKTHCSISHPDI
- assay comment: Agonist activity at rat TRPA1 channel expressed in HEK293 cells assessed as calcium influx measured at every 1 second for 60 seconds by fluorescence analysis
readout label: EC50 (nM)

{"compound": "O=C(NCc1ccccc1)c1cnc(N2CCN(C(=O)c3ccccc3)CC2)nc1NC1CC1", "readout label": "EC50", "recorded measurement": 5600}
{"compound": "O=C(NCc1ccccc1)c1cnc(N2CCN(Cc3ccccc3)CC2)nc1NC1CC1", "readout label": "EC50", "recorded measurement": 468}
{"compound": "O=C(NCc1ccccc1)c1cnc(N2CCN(CC3CCCOC3)CC2)nc1NC1CC1 (centres undefined)", "readout label": "EC50", "recorded measurement": 848}
{"compound": "CC(C)CNc1nc(N2CCN(Cc3ccccc3)CC2)ncc1C(=O)NCc1ccccc1", "readout label": "EC50", "recorded measurement": 175}
{"compound": "CC(C)CNc1nc(N2CCN(Cc3ccccc3)CC2)ncc1C(=O)NCc1ccccn1", "readout label": "EC50", "recorded measurement": 2250}

a. O=C(NCc1ccccc1)c1cnc(N2CCN(C(=O)c3c(F)cccc3F)CC2)nc1NC1CC1
b. COCCNC(=O)c1cnc(N2CCN(Cc3ccccc3)CC2)nc1NCC(C)C
c. CC(C)CNc1nc(N2CCN(CC3CCCOC3)CC2)ncc1C(=O)NCc1ccccc1 (centres undefined)
Provide the items ranked by increasing EC50. Enter labels, ranked according to the request. c, a, b
